tested.on: T1, human CEACAM1 expressed on the cell surface (CEACAM1-Jurkat T cells); HEK293 cells transfected with human … (human, UniProt P13688 35-526)
T1 construct: whole, on cells; also called CCM1
T1 sequence (looked up): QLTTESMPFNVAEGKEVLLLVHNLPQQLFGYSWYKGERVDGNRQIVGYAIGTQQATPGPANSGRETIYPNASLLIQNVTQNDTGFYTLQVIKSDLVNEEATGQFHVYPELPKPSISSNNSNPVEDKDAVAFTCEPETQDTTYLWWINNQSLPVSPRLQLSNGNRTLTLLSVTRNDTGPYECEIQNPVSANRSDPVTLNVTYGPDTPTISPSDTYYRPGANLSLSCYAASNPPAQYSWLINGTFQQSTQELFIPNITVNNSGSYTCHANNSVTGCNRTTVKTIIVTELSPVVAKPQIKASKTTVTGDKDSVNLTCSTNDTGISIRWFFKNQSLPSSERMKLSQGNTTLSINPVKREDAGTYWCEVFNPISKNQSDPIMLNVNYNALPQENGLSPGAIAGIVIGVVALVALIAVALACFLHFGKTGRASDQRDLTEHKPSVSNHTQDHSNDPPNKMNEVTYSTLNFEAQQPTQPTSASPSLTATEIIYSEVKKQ
procedure.summary: flow cytometry on CEACAM1-Jurkat T cells, PE goat anti-human F(ab)2, MFI [b]
measured.attribute: EC50 (read off the curve)

**Query** Provide measured EC50 (read off the curve) value, entry: 4R9_H4-n20 (antibody, human IgG4 S228P, lambda, V domains shown, also called C25-derived clone 4R9_H4-n20) VH: EVQLLESGGGLVQPGGSLRLSCAASGFNFSNYAMSWVRQAPGKGLEWVSVISHGGGSIYYADSVKGRLTISRDNSKNTLYLQMNSLRAEDTAVYYCARDPTKGYAPTFDYWGQGTLVTVSS VL: QSVLTQPPSASGTPGQRVTISCSGSSSNIGNNYVSWYQQLPGTAPKLLIYADSRRPSGVPDRFSGSKSGTSASLAISGLRSEDEADYYCGAWDLSLNGYVFGGGTKLTVLG
**Result** ~0.4 µg/mL

**Query** Provide measured EC50 (read off the curve) value, entry: 4R26 (antibody, human IgG4 S228P, lambda, V domains shown, also called C25-derived clone 4R26) VH: EVQLLESGGGLVQPGGSLRLSCAASGFTFSNYAMSWVRQAPGKGLEWVSVISHGGGSIYYADSVKGRLTISRDNSKNTLYLQMNSLRAEDTAVYYCARDPTKGYAPTFDYWGQGTLVTVSS VL: QSVLTQPPSASGTPGQRVTISCSGSSSNIGNNYVSWYQQLPGTAPKLLIYADSKRLSGVPDRFSGSKSGTSASLAISGLRSEDEADYYCGAWDGRLNGYVFGGGTKLTVLG
**Result** ~0.08 µg/mL

**Query** Provide measured EC50 (read off the curve) value, entry: C25 (antibody, human IgG4 S228P, lambda, V domains shown, Made in ExpiHEK293F cells, protein A purified. huIgG4 is the isotype control and anti-huIgG4 the detection reagent; the isotype is not otherwise stated; also called anti-CEACAM1 antibody C25) VH: EVQLLESGGGLVQPGGSLRLSCAASGFTFSNYAMSWVRQAPGKGLEWVSVISHGGGSIYYADSVKGRLTISRDNSKNTLYLQMNSLRAEDTAVYYCARDPTKGYAPTFDYWGQGTLVTVSS VL: QSVLTQPPSASGTPGQRVTISCSGSSSNIGNNYVSWYQQLPGTAPKLLIYADSKRPSGVPDRFSGSKSGTSASLAISGLRSEDEADYYCGAWDASLNGYVFGGGTKLTVLG
**Result** ~0.6 µg/mL

**Query** Provide measured EC50 (read off the curve) value, entry: 4R9 (antibody, human IgG4 S228P, lambda, V domains shown, also called C25-derived clone 4R9) VH: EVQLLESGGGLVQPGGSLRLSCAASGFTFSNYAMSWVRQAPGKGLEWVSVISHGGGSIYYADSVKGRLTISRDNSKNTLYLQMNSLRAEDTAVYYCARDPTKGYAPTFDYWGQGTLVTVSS VL: QSVLTQPPSASGTPGQRVTISCSGSSSNIGNNYVSWYQQLPGTAPKLLIYADSRRPSGVPDRFSGSKSGTSASLAISGLRSEDEADYYCGAWDLSLNGYVFGGGTKLTVLG
**Result** ~0.05 µg/mL

**Query** Provide measured EC50 (read off the curve) value, entry: 4R9_H2-2 (antibody, human IgG4 S228P, lambda, V domains shown, also called C25-derived clone 4R9_H2-2) VH: EVQLLESGGGLVQPGGSLRLSCAASGFTFSNYAMSWVRQAPGKGLEWVSVISHGGGSIYYADSVKGRLTISRDNSKNTLYLQMNSLRAEDTAVYYCARDPTKGYAPLFDYWGQGTLVTVSS VL: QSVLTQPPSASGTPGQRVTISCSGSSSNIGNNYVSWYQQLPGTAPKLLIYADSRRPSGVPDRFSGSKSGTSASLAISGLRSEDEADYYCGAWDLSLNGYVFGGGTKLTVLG
**Result** ~0.04 µg/mL
